The measurements presented in this section are drawn from the supplement of paper PMC10567573.

Listing of recorded protein stability index by entry.
B1: PLAGL1 (parent)
chain: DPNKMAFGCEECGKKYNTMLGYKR

- Variants of: B1
- Experiment: protein stability index of a GFP-peptide fusion (GPS, HEK-293T) (PSI 1-6); higher = more stable;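 also: lentivirally expressed fusions sorted by FACS into six bins by GFP to DsRed ratio, PSI derived from sequencing read proportions per bin multiplied by bin number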
- Run parameters: c terminus: a fixed tail appended
Simply state the number, no unit and no words.

E10T
2.21
Y16K
3.16

Moving on to another variant below.
*Q* Requested field: protein stability index. Item: K14I
*A* 2.46
